- test_method_notes: HUVEC growth inhibition – cell-based, human, primary screen (AID 575);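 note: 100% = median of untreated cell wells with 0.1% DMSO on each plate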
- settings: HUVEC proliferation, CellTiter-Glo luminescence, 72 h; at 10 µM; stronger effect = lower value
Would you mind telling me the reported viability of each entry?
Numbers only, in %.

compound	recorded_endpoint	readout_units	measurement
O=C(c1ccc(CNc2c(N3CCCC3)c(=O)c2=O)cc1)N1CCc2ccccc2C1	viability	%	104
COc1cc(C2c3c(oc4ccccc4c3=O)C(=O)N2c2ccc(C)cn2)ccc1O (configuration not stated)	viability	%	94.6
CCOC(=O)c1[nH]c(C)c(C(=O)Nc2ccc(Cl)cc2)c1C	viability	%	73.3

Below are some compounds; for each one, tell me its viability.
1. COc1ccc(NC(=O)C2CCCN2S(=O)(=O)c2cccc3cccnc23)c(OC)c1 (configuration not stated)
2. CN(C)C(=O)N1CCN(C(=O)c2ccco2)CC1

90.5
94.6

Below are some compounds; for each one, tell me its viability.
1. Cc1ccccc1NC(=O)C1CCCN(S(=O)(=O)c2cnc[nH]2)C1 (configuration not stated)
2. O=C(COC(=O)C1CC2C=CC1C2)Nc1ccc2c(c1)OC(F)(F)O2 (configuration not stated)
3. Brc1ccccc1-c1nc(-c2ccccc2)no1
4. O=C(CN1C(=O)c2ccccc2S1(=O)=O)NCc1ccccc1Cl
5. Cc1ccc(N(C)C(=O)N2CCN(c3ccccn3)CC2)cc1

[95.8, 84.2, 89.1, 99, 109]

Below are some compounds; for each one, tell me its viability.
1. CCSc1nc2c(c(=O)[nH]1)C(c1cccnc1)C(C(=O)OC(C)C)=C(C)N2 (configuration not stated)
2. COCCNC(=O)c1ccc(CS(=O)(=O)c2c(Cl)cccc2Cl)o1

1. 90.9
2. 84

* * *

- test_method_notes: H69AR cell proliferation blockers – human, duplicate replicates, primary screen (AID 580);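 note: 100% = mean luminescence of untreated wells and 0% = no signal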
- settings: H69AR lung tumor cells viability, ATP luminescence, 72 h; at 10 µM; stronger effect = lower value
Would you mind telling me the reported viability of each entry?
One number for each entry, in %.

compound	viability [%]
Cc1ccc(-c2cc(C(F)F)nc(NCc3cccnc3)n2)cc1	80.3
CCOC(=O)c1cccc(NC(=O)CNS(=O)(=O)c2cccs2)c1	88.3
CCCC(=O)C1=C(N(C)c2ccccc2)CC(C)(C)C(C(=O)OC)C1=O (stereo unspecified)	94.4

Below are some compounds; for each one, tell me its viability.
1. CCOC(=O)CCCOC(=O)c1ccc(S(=O)(=O)N(C)C)cc1
2. COc1ccc(C2c3c(oc4ccccc4c3=O)C(=O)N2c2ccc(C)cn2)cc1OC (stereo unspecified)
3. Nc1[nH]nc2nc(N3CCCC3)nc(-c3ccccc3)c12
4. Cc1nn(C(=O)c2ccoc2C)c(N)c1-c1ccccc1
5. CSc1cccc(NS(=O)(=O)c2ccccc2)c1
6. CCOC(=O)N1CCN(C(=O)c2cnn(-c3ccccc3)c2NC(=O)c2ccccc2F)CC1

1: 100; 2: 94.3; 3: 95.6; 4: 92.1; 5: 88.7; 6: 92

Below are some compounds; for each one, tell me its viability.
1. Cn1c(SCC(=O)c2cc3ccccc3o2)nnc1-c1ccccc1
2. COc1cccc(C2CC(c3c(Cl)cccc3Cl)n3nc(N)nc3N2)c1 (stereo unspecified)

[84.3, 83.6]

* * *

- test_method_notes: yeast transport mutant growth inhibition pilot in 384-well plates, post-Golgi transport modulator project (AID 636)
- settings: absorbance 615 nm, about 18 h, stronger effect = higher value
Active and inactive are the calls of the source. Rule as the data show it: active = inhibition above about 31%; inactive = the rest.
recorded_endpoint: inhibition

Below are some compounds; for each one, tell me its inhibition.
1. COC(=O)CCCCC(=O)C1C(=O)CC(C)(C)C(C(=O)OC)C1=O (centres undefined)
2. O=C(Nc1ccc2snnc2c1)N1CCN(c2ccccc2)CC1
3. CCCCn1c(NCc2ccccc2O)nc2ccccc21

1: 2.08% (inactive); 2: -0.38% (inactive); 3: -4.27% (inactive)

Below are some compounds; for each one, tell me its inhibition.
1. CCSc1nc2c(c(=O)[nH]1)C(c1cccnc1)C(C(=O)OC(C)C)=C(C)N2 (centres undefined)
2. CCOc1ccc(Cn2nnc(C(=O)Nc3ccc(OC)cc3OC)c2N)cc1
3. COCCCNC(=O)CSc1ccc(Cl)cc1
4. Cc1cc(C)n2nc(SCc3nc4ccccc4[nH]3)nc2n1

-4.19% (inactive)
-1.07% (inactive)
0% (inactive)
2.13% (inactive)

Below are some compounds; for each one, tell me its inhibition.
1. C=CCn1c(COc2ccc(CC)cc2)nnc1SC/C(O)=C(\C#N)c1nc2ccccc2[nH]1
2. Cc1nc2sc(C(c3cccs3)N3CC(C)CC(C)C3)c(O)n2n1 (centres undefined)
3. CN(C)CCCNC(=O)CCC1CCCCC1
4. c1ccc2c(c1)nc(NCCN1CCOCC1)c1nncn12
5. CCOC(=O)N1CCC(N2C(=O)c3ccccc3C2Nc2cc(Cl)c(OC)cc2OC)CC1 (centres undefined)
6. CCN1C(=O)c2cccc3c(NC(=O)c4ccc(S(=O)(=O)N(C)C)cc4)ccc1c23
7. Cc1ccc(-c2noc(COc3ccccc3C)n2)cc1
8. CC1CCc2nn(CC(=O)NCCN3CCOCC3)cc2C1 (centres undefined)

1: -0.92% (inactive); 2: -0.27% (inactive); 3: -7.16% (inactive); 4: -1.67% (inactive); 5: -4.8% (inactive); 6: 1.79% (inactive); 7: -1.2% (inactive); 8: -2.44% (inactive)

Below are some compounds; for each one, tell me its inhibition.
1. CCOc1ccc(N(CC(=O)NCc2ccco2)S(=O)(=O)c2ccc(OC)c(OC)c2)cc1
2. CCCCn1c(SCC(=O)OCC)nc2c1c(=O)[nH]c(=O)n2C
3. CCn1cc(C(=O)N2CCOCC2)c(=O)c2cc(S(=O)(=O)N(C)C3CCCCC3)ccc21
4. O=C(NC1CCCC1)C1CCCN(S(=O)(=O)c2cccc3cccnc23)C1 (centres undefined)
5. CN1CCN(C(=O)C2CCN(S(=O)(=O)c3ccc4c(c3)oc(=O)n4C)CC2)CC1
6. CC(C)CC1NC2(C(=O)N(C)c3ccccc32)C2C(=O)N(C(C)C)C(=O)C12 (centres undefined)
7. Cc1nc2ccccc2c2oc(C(=O)NCCCN3CCCC3=O)cc12

1: -3.51% (inactive); 2: -2.53% (inactive); 3: 0.26% (inactive); 4: -5.07% (inactive); 5: -2.95% (inactive); 6: -1.73% (inactive); 7: -5.73% (inactive)

Below are some compounds; for each one, tell me its inhibition.
1. COc1ccc(OCCSc2nc3ccccc3n2CC(=O)O)cc1
2. CCCN1CCN(C(=O)c2cn(CC(C)C)c(=O)c3cc(OC)c(OC)cc23)CC1

1: -3.21% (inactive); 2: -4.74% (inactive)

Below are some compounds; for each one, tell me its inhibition.
1. COc1ccc(N(CC(=O)O)S(=O)(=O)c2ccc(OC)c(OC)c2)cc1
2. CCOc1ccccc1N(CC(=O)N1CCCCCC1)S(C)(=O)=O
3. CN1CCN(C(=O)c2ccc(CS(=O)(=O)c3c(Cl)cccc3Cl)o2)CC1
4. CN(Cc1ccccc1)S(=O)(=O)c1ccc(S(=O)(=O)N2CCN(CCC#N)CC2)cc1
5. O=C(Nc1ccc2c(c1)OCCO2)c1cnc2n(c1=O)CCS2
6. N#CCCN1CCN(S(=O)(=O)c2ccc(S(=O)(=O)NC3CCCCC3)cc2)CC1
7. CCc1ccc(N2CC34C=CC(O3)C(C(=O)OC)C4C2=O)cc1 (centres undefined)

1: -3.38% (inactive); 2: -1.3% (inactive); 3: -2% (inactive); 4: -4.23% (inactive); 5: 0.93% (inactive); 6: -2.69% (inactive); 7: -2.8% (inactive)

Below are some compounds; for each one, tell me its inhibition.
1. CCCSc1nc2c(cnn2-c2ccc(C)cc2)c(=O)[nH]1
2. C=CCSc1nc(N)c2c(C)c(C)sc2n1
3. Cc1cc(C)c(C#N)c(SCC(=O)Nc2ccc(S(=O)(=O)Nc3onc(C)c3C)cc2)n1
4. CC(=O)N1c2c(cc(Br)cc2S(=O)(=O)NCC2COc3ccccc3O2)CC1C (centres undefined)
5. Cc1nc2ccc(C(=O)c3ccccc3)cc2[nH]1
6. CC1CN(c2c3c(nc4ncnn24)CCCC3)CC(C)O1 (centres undefined)
7. CCN(CCCNS(=O)(=O)c1ccc2c(c1)oc(=O)n2C)c1cccc(C)c1
8. O=C(c1ccc(Cl)s1)N1CCN(c2nc3ccccc3s2)CC1

1. -2% (inactive)
2. -0.52% (inactive)
3. -3.73% (inactive)
4. -5.34% (inactive)
5. -3.64% (inactive)
6. -4.87% (inactive)
7. -0.38% (inactive)
8. -3.47% (inactive)

Below are some compounds; for each one, tell me its inhibition.
1. Cc1nn(-c2ccc(F)cc2)c2c1cc(C#N)c1nc3ccccc3n12
2. Cc1cc(C)n(-c2cc(N3CCOCC3)ncn2)n1
3. O=C(Oc1ccc2ccc(OC(=O)N3CCOCC3)cc2c1)N1CCOCC1
4. CC(C)CCN(C)C1CCN(S(=O)(=O)c2ccc(F)cc2)CC1
5. O=C1c2ccccc2C(Nc2ccc(-c3nc4ccccc4[nH]3)cc2)N1Cc1ccco1 (centres undefined)

-2.89% (inactive)
-3.47% (inactive)
-0.13% (inactive)
-1.87% (inactive)
0.4% (inactive)
